S. epidermidis: reported log10(MIC) for various compounds.
Heads up, the numbers here are log10 of MIC in µM units.

Incoming: Consider the compound O=C(Nc1ncc([N+](=O)[O-])s1)c1cccnc1F and give its measured log10(MIC).
Outgoing: 2.08

Incoming: Consider the compound O=C(Nc1ncc([N+](=O)[O-])s1)c1ccco1 and give its measured log10(MIC).
Outgoing: 1.83

Incoming: Consider the compound O=C(Nc1ncc([N+](=O)[O-])s1)c1cccc([N+](=O)[O-])c1 [Analogue 26, 3-Nitro-N-(5-nitrothiazol-2-yl)benzamide] and give its measured log10(MIC).
Outgoing: 1.01

Incoming: Consider the compound O=C(Nc1ncc([N+](=O)[O-])s1)c1cccs1 and give its measured log10(MIC).
Outgoing: 1.50

Incoming: Consider the compound O=C(Nc1ncc([N+](=O)[O-])s1)c1ccc(Cl)c(C(F)(F)F)c1 and give its measured log10(MIC).
Outgoing: 0.45

Incoming: Consider the compound O=C(Nc1ncc([N+](=O)[O-])s1)c1sc2cc(F)ccc2c1Cl and give its measured log10(MIC).
Outgoing: 0.75

Incoming: Consider the compound O=C(Nc1ncc([N+](=O)[O-])s1)c1cccc(OC(F)(F)F)c1 and give its measured log10(MIC).
Outgoing: 1.08

Incoming: Consider the compound O=C(Nc1ncc([N+](=O)[O-])s1)c1cccc(C(F)(F)F)c1Cl and give its measured log10(MIC).
Outgoing: 1.06

Incoming: Consider the compound O=C(Nc1ncc([N+](=O)[O-])s1)c1cccc(C(F)(F)F)c1 and give its measured log10(MIC).
Outgoing: 1.10

Incoming: Consider the compound O=C(Nc1ncc([N+](=O)[O-])s1)c1ccsc1 and give its measured log10(MIC).
Outgoing: 1.20

Incoming: Consider the compound O=C(Nc1ncc([N+](=O)[O-])s1)c1ccc(-c2cccc(C(F)(F)F)c2)o1 and give its measured log10(MIC).
Outgoing: 0.76

Incoming: Consider the compound CC(=O)Nc1ncc([N+](=O)[O-])s1 [Analogue 48, N-(5-Nitrothiazol-2-yl)acetamide] and give its measured log10(MIC).
Outgoing: 1.33

Incoming: Consider the compound O=C(Nc1ncc([N+](=O)[O-])s1)c1ccoc1 and give its measured log10(MIC).
Outgoing: 1.52

----------
# Test Protocol: Human foreskin cell toxicity
# Assay type: cell-based
# Condition Parameters: human, human foreskin cells
Result Type: CC50 at 48 h

Incoming: Consider the compound O=C(Nc1ncc([N+](=O)[O-])s1)c1ccc(F)cc1 and give its measured CC50 at 48 h.
Outgoing: 29.9 µM

Incoming: Consider the compound O=C(Nc1ncc([N+](=O)[O-])s1)c1ccc(Cl)c(C(F)(F)F)c1 and give its measured CC50 at 48 h.
Outgoing: > 45.5 µM

Incoming: Consider the compound O=C(Nc1ncc([N+](=O)[O-])s1)c1ccco1 and give its measured CC50 at 48 h.
Outgoing: 66.9 µM

Incoming: Consider the compound O=C(Nc1ncc([N+](=O)[O-])s1)c1cc(C(F)(F)F)cc(C(F)(F)F)c1 and give its measured CC50 at 48 h.
Outgoing: 10.4 µM

Incoming: Consider the compound O=C(Nc1ncc([N+](=O)[O-])s1)c1sc2ccccc2c1Cl and give its measured CC50 at 48 h.
Outgoing: > 47.1 µM

Incoming: Consider the compound O=C(Nc1ncc([N+](=O)[O-])s1)c1cc2ccccc2s1 and give its measured CC50 at 48 h.
Outgoing: > 52.6 µM

Incoming: Consider the compound O=C(Nc1ncc([N+](=O)[O-])s1)c1ccoc1 and give its measured CC50 at 48 h.
Outgoing: > 66.9 µM

Incoming: Consider the compound O=C(Nc1ncc([N+](=O)[O-])s1)c1ccsc1 and give its measured CC50 at 48 h.
Outgoing: > 62.7 µM

Incoming: Consider the compound O=C(Nc1ncc([N+](=O)[O-])s1)c1cccs1 and give its measured CC50 at 48 h.
Outgoing: > 62.7 µM

Incoming: Consider the compound O=C(Nc1ncc([N+](=O)[O-])s1)c1cccc(OC(F)(F)F)c1 and give its measured CC50 at 48 h.
Outgoing: > 48 µM

Incoming: Consider the compound O=C(Nc1ncc([N+](=O)[O-])s1)c1ccc([N+](=O)[O-])o1 and give its measured CC50 at 48 h.
Outgoing: > 56.3 µM

Incoming: Consider the compound CC(=O)Nc1ncc([N+](=O)[O-])s1 [Analogue 48, N-(5-Nitrothiazol-2-yl)acetamide] and give its measured CC50 at 48 h.
Outgoing: > 85.5 µM

Incoming: Consider the compound CCCCCC(=O)Nc1ncc([N+](=O)[O-])s1 [Analogue 50, N-(5-Nitrothiazol-2-yl)hexanamide] and give its measured CC50 at 48 h.
Outgoing: > 65.8 µM

Incoming: Consider the compound O=C(Nc1ncc([N+](=O)[O-])s1)c1sc2cc(F)ccc2c1Cl and give its measured CC50 at 48 h.
Outgoing: 33.5 µM

Incoming: Consider the compound CC(=O)Oc1ccccc1C(=O)Nc1ncc([N+](=O)[O-])s1 [Nitazoxanide, reference compound] and give its measured CC50 at 48 h.
Outgoing: > 52.1 µM

Incoming: Consider the compound O=C(Nc1ncc([N+](=O)[O-])s1)c1ccc(-c2cccc(C(F)(F)F)c2)o1 and give its measured CC50 at 48 h.
Outgoing: > 41.7 µM

Incoming: Consider the compound O=C(Nc1ncc([N+](=O)[O-])s1)c1cccc(C(F)(F)F)c1 and give its measured CC50 at 48 h.
Outgoing: > 50.4 µM

Incoming: Consider the compound O=C(Nc1ncc([N+](=O)[O-])s1)c1cccc(C(F)(F)F)c1Cl and give its measured CC50 at 48 h.
Outgoing: > 45.5 µM

Incoming: Consider the compound O=C(Nc1ncc([N+](=O)[O-])s1)c1cccnc1F and give its measured CC50 at 48 h.
Outgoing: > 59.7 µM

----------
# Test Protocol: Human foreskin cell toxicity
# Type: cell-based
# Condition Parameters: human
Result Type: CC50 at 48 h (µM)
Please give a number only; it is taken to be in µM.

Incoming: Consider the compound O=C(Nc1ncc([N+](=O)[O-])s1)c1cccc([N+](=O)[O-])c1 [Analogue 26, 3-Nitro-N-(5-nitrothiazol-2-yl)benzamide] and give its measured CC50 at 48 h.
Outgoing: 27.2

----------
Result Type: MIC

Incoming: So what MIC did O=C(Nc1ncc([N+](=O)[O-])s1)c1ccc([N+](=O)[O-])o1 [Analogue 64] get with S. epidermidis?
Outgoing: 28.1 µM

Incoming: So what MIC did O=C(Nc1ncc([N+](=O)[O-])s1)c1cc(C(F)(F)F)cc(C(F)(F)F)c1 [Analogue 38] get with S. epidermidis?
Outgoing: 1.9 µM

Incoming: So what MIC did O=C(Nc1ncc([N+](=O)[O-])s1)c1cc2ccccc2s1 [Analogue 84] get with S. epidermidis?
Outgoing: 13.1 µM

Incoming: So what MIC did CC(=O)Oc1ccccc1C(=O)Nc1ncc([N+](=O)[O-])s1 [Nitazoxanide, reference compound] get with S. epidermidis?
Outgoing: 52.1 µM

----------
# Test system: H. pylori PFOR enzyme
# Test Protocol: Direct PFOR enzyme assay
# Type: biochemical
# Condition Parameters: [Drug] = 40 μM
Marks after values point to notes of the source that are not given here.
Give measured PFOR Inhibition for each item. Keep answers brief.

Incoming: Consider the molecule O=C(Nc1ncc([N+](=O)[O-])s1)c1ccc(Cl)c(C(F)(F)F)c1 [Analogue 41] and give its measured PFOR Inhibition.
Outgoing: 33 ± 1%

Incoming: Consider the molecule CCCCCC(=O)Nc1ncc([N+](=O)[O-])s1 [Analogue 50, N-(5-Nitrothiazol-2-yl)hexanamide] and give its measured PFOR Inhibition.
Outgoing: 64 ± 6 ^b %

Incoming: Consider the molecule O=C(Nc1ncc([N+](=O)[O-])s1)c1ccc(F)cc1 [Analogue 8] and give its measured PFOR Inhibition.
Outgoing: 85 ^b %

Incoming: Consider the molecule O=C(Nc1ncc([N+](=O)[O-])s1)c1ccoc1 [Analogue 60] and give its measured PFOR Inhibition.
Outgoing: 58 ± 2 ^b %

Incoming: Consider the molecule O=C(Nc1ncc([N+](=O)[O-])s1)c1cccs1 [Analogue 76] and give its measured PFOR Inhibition.
Outgoing: 56 ± 6 ^b %

Incoming: Consider the molecule O=C(Nc1ncc([N+](=O)[O-])s1)c1cccc(C(F)(F)F)c1 [Analogue 23] and give its measured PFOR Inhibition.
Outgoing: 41.5 ± 5.5%

Incoming: Consider the molecule O=C(Nc1ncc([N+](=O)[O-])s1)c1ccsc1 [Analogue 74] and give its measured PFOR Inhibition.
Outgoing: 58.5 ± 3.5 ^b %

Incoming: Consider the molecule O=C(Nc1ncc([N+](=O)[O-])s1)c1cccnc1F [Analogue 59] and give its measured PFOR Inhibition.
Outgoing: 61 ± 13%

Incoming: Consider the molecule O=C(Nc1ncc([N+](=O)[O-])s1)c1ccco1 [Analogue 61] and give its measured PFOR Inhibition.
Outgoing: 42 ^b %
